Details: 323.15 K; 101.33 kPa; Liquid
endpoint.label: viscosity (mPa·s)

Example cases with answers are listed next.
compound: CCCCO [butan-1-ol]
endpoint.label: viscosity
numeric.result: 1.421
//
compound: CCCCCO [pentan-1-ol]
endpoint.label: viscosity
numeric.result: 1.822

(A) CCOC(=O)OCC [diethyl carbonate]
(B) CCCO [propan-1-ol]
Request: // pick min by viscosity: A , B Please respond with the label that marks your chosen entry.
Response: A
(A: 0.541 mPa·s, B: 1.115 mPa·s)

The values you see were collected from the NIST ThermoML archive (doi:10.1021/je0600808).
